// data source = patent US20190031618A1

subject of test: Human CB1R (Cannabinoid receptor 1) (Homo sapiens, UniProt P21554)
Sequence (P21554 whole entry): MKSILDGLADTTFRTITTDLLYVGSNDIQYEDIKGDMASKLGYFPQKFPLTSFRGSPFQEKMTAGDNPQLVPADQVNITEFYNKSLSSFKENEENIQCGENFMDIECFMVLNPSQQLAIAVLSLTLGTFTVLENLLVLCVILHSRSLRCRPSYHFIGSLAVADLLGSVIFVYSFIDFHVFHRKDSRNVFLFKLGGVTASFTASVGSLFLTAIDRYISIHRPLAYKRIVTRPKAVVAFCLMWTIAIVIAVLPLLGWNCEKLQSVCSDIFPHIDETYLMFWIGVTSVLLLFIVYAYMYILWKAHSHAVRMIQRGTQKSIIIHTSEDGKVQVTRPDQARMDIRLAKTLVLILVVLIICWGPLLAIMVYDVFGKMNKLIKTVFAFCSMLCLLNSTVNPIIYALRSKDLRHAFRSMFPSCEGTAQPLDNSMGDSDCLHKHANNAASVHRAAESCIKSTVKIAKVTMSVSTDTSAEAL
test summary: CB-1 in vitro cAMP (HTRF) assay
Format: cell-based
conditions: HEK cells, cAMP HTRF, 250 nM forskolin; mean where tested more than once; read-out: CB1 HEK_cAMP EC50
For each entry below, report its EC50 value.
One number for each entry, in µM.

Cc1nc2ccc(C(c3ccc(Cl)cc3)c3nccs3)cc2n1C1Cc2ccccc2C1 (stereo not shown)    2.02

Below are 3 compounds. Give each one its EC50.
1. O=C(O)COc1cccc(N2CCC(n3c(C4CC4)nc4ccc(C(c5ccc(Cl)cc5)c5ccc(Cl)cc5)cc43)CC2)c1
2. NC(=O)c1ccc(S(=O)(=O)N2CCC(n3c(C4CC4)nc4ccc(C(c5ccc(Cl)cc5)c5ccc(Cl)cc5)cc43)CC2)cc1
3. C#CCN1CCC(n2c(C3CC3)nc3ccc(C(c4ccc(Cl)cc4)c4ccc(Cl)cc4)cc32)CC1

1. 0.311
2. 0.0155
3. 0.0067
